Values compiled from patent US9920061B2.

Assay Target: glucocerebrosidase (Gcase) (Homo sapiens, UniProt P04062)
Experiment Summary: Glucocerebrosidase (Gcase) activation assay, 4-methylumbelliferyl-beta-D-glucopyranoside substrate, with saposin C
Format: biochemical
Condition Set: test compound at 1.0 μM; read-out: Percent Gcase Activation, 1 μM Test Compound
Assay Readout: activation at 1 µM

Worked set:
Cc1cc(NC(=O)c2ccccc2)nc2c(C(=O)NC(C3CC3)C(F)(F)F)ncn12 (centres unmarked)
30 to 60%
COc1c(F)cccc1-c1cc(C)n2cnc(C(=O)NC(C3CC3)C(F)(F)F)c2n1 (centres unmarked)
> 60%
Cc1cc(-c2ccc(F)cc2C#N)nc2c(C(=O)NC(C3CC3)C(F)(F)F)ncn12 (centres unmarked)
> 60%
Cc1cc(-c2cnsc2)nc2c(C(=O)NC(C)(C)C)ncn12
> 60%
CCCCO[C@H]1C[C@H]2CC[C@@H](C1)[C@@H]2NC(=O)c1ncn2c(C)cc(COC)nc12
> 60%
Cc1cc(-c2ccco2)nc2c(C(=O)NC(C3CC3)C(F)(F)F)ncn12 (centres unmarked)
> 60%
Cc1cc(-c2sccc2C#N)nc2c(C(=O)NC(C3CC3)C(F)(F)F)ncn12 (centres unmarked)
> 60%
Cc1cc(-c2cnsc2)nc2c(C(=O)N[C@@H](C3CC3)C(F)(F)F)ncn12
> 60%

Query: Supply activation at 1 µM measured with glucocerebrosidase (Gcase) (Homo sapiens, UniProt P04062) for `C#CC(C)(C)NC(=O)c1ncn2c(C)cc(-c3cccc4nccn34)nc12` .
Result: < 30%

---

Below is a list of entries, each paired with its recorded log10(solubility) value.
Experiment Summary: Compound solubility in water
Assay type: physicochemical
Condition Set: in water
Log10 applied to solubility; unit prior to transform: µg/mL.

Worked set:
Cc1cc(NC(=O)c2ccccc2)nc2c(C(=O)NC(C3CC3)C(F)(F)F)ncn12 (stereo not drawn) [IV-6]
1.18
Cc1cc(-c2cccc(F)c2C#N)nc2c(C(=O)NC(C3CC3)C(F)(F)F)ncn12 (stereo not drawn) [IV-38]
-0.40
Cc1cc(-c2ccco2)nc2c(C(=O)NC(C3CC3)C(F)(F)F)ncn12 (stereo not drawn) [IV-83]
0.08
CCc1cc(N2CCN(CC(F)(F)F)C2=O)nc2c(C(=O)NC(C3CC3)C(F)(F)F)ncn12 (stereo not drawn) [IV-90]
1.41
Cc1cc(-c2ccccc2CC#N)nc2c(C(=O)NC(C3CC3)C(F)(F)F)ncn12 (stereo not drawn) [IV-40]
1.19

Query: Provide only the value of recorded log10(solubility) for COc1ccc(-c2cc(C)n3cnc(C(=O)NC(C4CC4)C(F)(F)F)c3n2)cc1F (stereo not drawn) [IV-70]
Result: 0.18

---

Below is a list of entries, each paired with its recorded activation at 0.1 µM value.
Assay Target: glucocerebrosidase (Gcase) (Homo sapiens)
Experiment Summary: Glucocerebrosidase (Gcase) activation assay, 4-methylumbelliferyl-beta-D-glucopyranoside substrate, with saposin C
Type: biochemical
Condition Set: 0.1 μM test compound; read-out: Percent Gcase Activation 0.1 μM Test Compound

Query: Provide only the value of recorded activation at 0.1 µM for Cc1cc(-c2cscn2)nc2c(C(=O)NC(C)(C)C3CC3)ncn12 [III-62]
Result: < 10%

Query: Provide only the value of recorded activation at 0.1 µM for Cc1cc(-c2ccccn2)nc2c(C(=O)NC(C3CC3)C(F)(F)F)ncn12 (stereo not drawn) [III-72]
Result: 10 to 20%

Query: Provide only the value of recorded activation at 0.1 µM for COc1cc(F)cc(-c2cc(C)n3cnc(C(=O)NC(C)(C)C)c3n2)c1 [III-126]
Result: > 20%

Query: Provide only the value of recorded activation at 0.1 µM for C#CC(C)(C)NC(=O)c1ncn2c(C)cc(-c3cccc(OC4CC4)c3)nc12 [III-186]
Result: > 20%

Query: Provide only the value of recorded activation at 0.1 µM for Cc1cc(-c2cccc3ocnc23)nc2c(C(=O)NC(C3CC3)C(F)(F)F)ncn12 (stereo not drawn) [III-145]
Result: > 20%

Query: Provide only the value of recorded activation at 0.1 µM for Cc1cc(-c2cccc(F)c2)nc2c(C(=O)NC(C3CC3)C3CC3)ncn12 [III-133]
Result: > 20%

Query: Provide only the value of recorded activation at 0.1 µM for Cc1cc(-c2ccc(F)c(F)c2)nc2c(C(=O)NC(C)C3CC3)ncn12 (stereo not drawn) [III-85]
Result: > 20%

Query: Provide only the value of recorded activation at 0.1 µM for COc1cc(-c2cc(C)n3cnc(C(=O)N[C@@H](C)C4CC4)c3n2)ccn1 [III-99]
Result: < 10%

---

Assay Target: glucocerebrosidase (Gcase) (Homo sapiens, UniProt P04062)
Sequence (P04062 40-536): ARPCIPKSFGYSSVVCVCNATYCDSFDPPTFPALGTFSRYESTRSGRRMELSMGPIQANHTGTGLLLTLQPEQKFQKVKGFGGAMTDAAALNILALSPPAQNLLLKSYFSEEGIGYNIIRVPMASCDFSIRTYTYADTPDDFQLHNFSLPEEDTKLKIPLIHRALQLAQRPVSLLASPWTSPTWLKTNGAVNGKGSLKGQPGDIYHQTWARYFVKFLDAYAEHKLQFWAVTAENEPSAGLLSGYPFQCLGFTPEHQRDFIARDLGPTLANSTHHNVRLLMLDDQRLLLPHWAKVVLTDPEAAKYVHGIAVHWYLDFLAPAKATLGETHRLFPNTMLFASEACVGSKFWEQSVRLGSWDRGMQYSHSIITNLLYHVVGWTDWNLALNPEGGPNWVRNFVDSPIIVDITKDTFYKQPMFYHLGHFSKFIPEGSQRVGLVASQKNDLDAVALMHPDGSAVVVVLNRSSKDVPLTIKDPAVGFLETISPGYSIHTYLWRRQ
Experiment Summary: Glucocerebrosidase (Gcase) activation assay, 4-methylumbelliferyl-beta-D-glucopyranoside substrate, with saposin C
Assay type: biochemical
Condition Set: test compound at 1.0 μM; read-out: Percent Gcase Activation, 1 μM Test Compound
Method: The ability of exemplary compounds to activate glucocerebrosidase (Gcase) was measured. A 484 μL aliquot of a 1.0 mg/mL solution of phosphatidylserine (PS) (Sigma P7769) in chloroform was evaporated under a stream of nitrogen for 1 hour. The lipid film was dissolved over 4 minutes of vigorous vortexing in 40 mL of 176 mM K2HPO4/50 mM citric acid (pH 4.7) containing 7.5 μL of triton X-100, resulting in a mixed micellar preparation with a composition of 0.32 mM triton and 0.37 mol % PS. […]
Assay Readout: activation at 1 µM

Worked set:
COc1cccc(-c2cc(C)n3cnc(C(=O)N[C@@H](C4CC4)C(F)(F)F)c3n2)n1 [IV-14]
> 60%
Cc1cc(-c2cccc3scnc23)nc2c(C(=O)NC(C3CC3)C(F)(F)F)ncn12 (stereo not drawn) [IV-47]
30 to 60%

Query: Provide only the value of recorded activation at 1 µM for COc1cccc(-c2cc(C)n3cnc(C(=O)N[C@H](C4CC4)C(F)(F)F)c3n2)n1 [IV-13]
Result: > 60%

---

Assay Target: glucocerebrosidase (Gcase) (Homo sapiens)
Experiment Summary: Glucocerebrosidase (Gcase) activation assay, 4-methylumbelliferyl-beta-D-glucopyranoside substrate, with saposin C
Format: biochemical
Condition Set: test compound at 1.0 μM; read-out: Percent Gcase Activation, 1 μM Test Compound
Assay Readout: activation at 1 µM

Cc1cc(-c2cccc(OC(F)(F)F)n2)nc2c(C(=O)N[C@@H](C)C3CC3)ncn12
> 60%
COc1c(F)cccc1-c1cc(C)n2cnc(C(=O)NC(C)C(F)(F)F)c2n1 (centres unmarked)
30 to 60%
Cc1cc(-c2ccc(C#N)o2)nc2c(C(=O)N[C@H](C3CC3)C(F)(F)F)ncn12
> 60%
COc1cc(F)cc(-c2cc(C)n3cnc(C(=O)NC(C)C(F)(F)F)c3n2)c1 (centres unmarked)
> 60%
Cc1sncc1-c1cc(C)n2cnc(C(=O)N[C@H](C3CC3)C(F)(F)F)c2n1
> 60%

Query: Provide only the value of recorded activation at 1 µM for `Cc1cc(-c2ccc(C#N)o2)nc2c(C(=O)N[C@@H](C3CC3)C(F)(F)F)ncn12`
Result: > 60%

Query: Provide only the value of recorded activation at 1 µM for COc1ccc(F)c(-c2cc(C)n3cnc(C(=O)NC(C)C(F)(F)F)c3n2)c1 (centres unmarked)
Result: > 60%

Query: Provide only the value of recorded activation at 1 µM for CCc1cc(N2CCN(CC(F)(F)F)C2=O)nc2c(C(=O)NC(C3CC3)C(F)(F)F)ncn12 (centres unmarked)
Result: > 60%

Query: Provide only the value of recorded activation at 1 µM for `Cc1cc(-c2ccc3c(c2)OCO3)nc2c(C(=O)N[C@H](C)C3CC3)ncn12`
Result: > 60%

Query: Provide only the value of recorded activation at 1 µM for `Cc1cc(-c2ccc3c(c2)OCO3)nc2c(C(=O)N[C@@H](C)C(F)(F)F)ncn12`
Result: > 60%

Query: Provide only the value of recorded activation at 1 µM for `CCc1cc(-c2ccns2)nc2c(C(=O)NC(C)(C)C)ncn12`
Result: > 60%

Query: Provide only the value of recorded activation at 1 µM for COc1ccc(F)cc1-c1cc(C)n2cnc(C(=O)NC(C3CC3)C(F)(F)F)c2n1 (centres unmarked)
Result: > 60%

Query: Provide only the value of recorded activation at 1 µM for Cc1cc(-c2nccs2)nc2c(C(=O)NC(C3CC3)C(F)(F)F)ncn12 (centres unmarked)
Result: > 60%

Query: Provide only the value of recorded activation at 1 µM for Cc1cc(-c2cccc(-c3ncco3)c2)nc2c(C(=O)NC(C3CC3)C(F)(F)F)ncn12 (centres unmarked)
Result: > 60%

Query: Provide only the value of recorded activation at 1 µM for `COc1cccc(-c2cc(C)n3cnc(C(=O)N[C@@H](C)C(F)(F)F)c3n2)c1`
Result: > 60%

Query: Provide only the value of recorded activation at 1 µM for Cc1cc(C#N)c(-c2cc(C)n3cnc(C(=O)NC(C4CC4)C(F)(F)F)c3n2)o1 (centres unmarked)
Result: > 60%

Query: Provide only the value of recorded activation at 1 µM for Cc1sc(C#N)cc1-c1cc(C)n2cnc(C(=O)NC(C3CC3)C(F)(F)F)c2n1 (centres unmarked)
Result: > 60%

Query: Provide only the value of recorded activation at 1 µM for COc1c(C#N)cccc1-c1cc(C)n2cnc(C(=O)NC(C)C(F)(F)F)c2n1 (centres unmarked)
Result: < 30%

Query: Provide only the value of recorded activation at 1 µM for `Cc1cc(-c2ccc3c(c2)OCO3)nc2c(C(=O)N[C@H](C)C(F)(F)F)ncn12`
Result: > 60%

Query: Provide only the value of recorded activation at 1 µM for Cc1cc(N2CCCN(C(C)C)C2=O)nc2c(C(=O)NC(C3CC3)C(F)(F)F)ncn12 (centres unmarked)
Result: < 30%
